Listed compounds paired with reported melting point

In the examples that follow, each entry is paired with its recorded melting point.
{"compound": "N#Cc1c[nH]cc1-c1cccc(F)c1", "melting point": "140 to 142 °C"}
{"compound": "O=C1NCc2c1cc1ccc3c(c1c2-c1ccc(OCc2ccccc2)cc1)OCO3", "melting point": "257 to 260 °C"}
{"compound": "Cc1cccc(CC(Nc2ccccc2)C(=O)NC(C#N)COCc2ccc(F)c(C(=O)O)c2)c1 (stereo unspecified)", "melting point": "107 to 108 °C"}
{"compound": "COc1cc(OC)nc(NC(=O)NS(=O)(=O)c2cccc3sc(C)nc23)n1", "melting point": "187 to 194 °C"}
{"compound": "O=c1oc2ccc(Cl)cc2cc1S(=O)(=O)Cc1ccc(Cl)c([N+](=O)[O-])c1", "melting point": "272 to 275 °C"}

Below: the item to evaluate.
Entry COC(=O)c1ccc(C#Cc2cncc(C3CCCN3C)c2)cc1 (stereo unspecified) ; melting point = 97 to 98 °C

###

Listed compounds paired with reported melting point

{"compound": "O=C(O)Cc1cc2c(c([N+](=O)[O-])c1)NC(C(F)(F)F)CC2 (centres undefined)", "recorded_result": "177 to 178 °C"}
{"compound": "O=C(O)[C@H](Cc1ccc(-c2ccccc2)cc1)NCP(=O)(Oc1ccccc1)Oc1ccccc1", "recorded_result": "118 to 119 °C"}
{"compound": "CCN(CC)c1ccc2cc(-c3nc(C)c(C(=O)OC)s3)c(=O)oc2c1", "recorded_result": "252 to 253 °C"}
{"compound": "Cc1c(N)c(C)c2c(-c3ccc(C4CCCCC4)cc3)coc2c1C", "recorded_result": "139 to 140 °C"}
{"compound": "COC(=O)c1cccn1-c1cc2[nH]c(=O)c(=O)n(C3CCCCC3)c2cc1[N+](=O)[O-]", "recorded_result": "211 to 212 °C"}

Entry COc1cc(Nc2nccc(-c3ccc(N4CCN(CCCO)CC4)nc3)n2)cc(OC)c1OC ; melting point = 116 to 117 °C

Entry O=C1C2C3C=CC(C3)C2C(=O)N1OS(=O)(=O)CCSC1CCCCC1 (centres undefined) ; melting point = 96 to 98 °C

Entry CC(=O)c1cn(C)cc(-c2cccc(C(F)(F)F)c2)c1=O ; melting point = 130 to 131 °C

Entry COc1cccc(CC(=O)O)c1OCc1cc(OC(C)C)nn1Cc1ccc2ccccc2n1 ; melting point = 129 to 130 °C

###

Listed compounds paired with reported melting point

In the examples that follow, each entry is paired with its recorded melting point.
{"compound": "O=S(=O)(NCC1CCN(C[C@H]2COc3ccc(Cl)cc3O2)CC1)c1ccc(Cl)cc1", "recorded_result": "152 to 154 °C"}
{"compound": "Cn1c2ccc(F)cc2c(=O)n2nc(-c3nnn[nH]3)cc12", "recorded_result": "350 to 360 °C"}
{"compound": "CC(=O)Nc1c(CC(=O)O)cccc1Oc1ccccc1", "recorded_result": "155 to 156 °C"}
{"compound": "CC(C)(C)OC(=O)NCCNC(=O)c1n[nH]cc1-c1ccccc1", "recorded_result": "71 °C"}
{"compound": "COC(=O)NC1Cc2ccc([N+](=O)[O-])cc2C1O (centres undefined)", "recorded_result": "201 to 203 °C"}
{"compound": "CCCCC1NC(C(=O)O)Cc2c1[nH]c1ccccc21 (centres undefined)", "recorded_result": "204 to 205 °C"}
{"compound": "CC(C#Cc1ccc(Oc2ccc(C(C)(C)C)cc2)o1)N(O)C(N)=O (centres undefined)", "recorded_result": "144 to 145 °C"}
{"compound": "Cn1ncc2c(=O)n3c(nc21)SC(c1ccccc1)C3 (centres undefined)", "recorded_result": "191 °C"}

Below: the item to evaluate.
Entry NC(=NCC(F)(F)F)Nc1ccnc(SCCCC2=NCCN2)n1 ; melting point = 184 to 186 °C
